SYSTEM TESTED: UniProt Q9QZN9
METRIC NAME: pKi
The quantity pKi is defined as the negative base-10 logarithm of the molar concentration.

The examples below pair each entry with its known result.
CC(C)(C)c1cn(C[C@H]2CCCO2)/c(=N/C(=O)c2cc(C(F)(F)F)ccc2OCCNCCO)s1 8.00
CC(C)(C)c1cn(C[C@H]2CCCO2)/c(=N/C(=O)c2cc(C(F)(F)F)ccc2OCc2ccccc2)s1 8.54
CC(C)(C)c1cn(C[C@H]2CCCO2)/c(=N/C(=O)c2cc(C(F)(F)F)ccc2OCc2cnccn2)s1 8.30

I'd like to know its pKi. The compound in question is `CC(C)(O)CCOc1ccc(C(F)(F)F)cc1C(=O)/N=c1\sc(C(C)(C)C)cn1C[C@H]1CCCO1` 9.30

# get_value(readout='pKi', item= `CN1C[C@H](F)C[C@H]1COc1ccc(C(F)(F)F)cc1C(=O)/N=c1\sc(C(C)(C)C)cn1C[C@H]1CCCO1` ) 8.82

Name the reported pKi value associated with the compound `Cn1cncc1COc1ccc(C(F)(F)F)cc1C(=O)/N=c1\sc(C(C)(C)C)cn1C[C@H]1CCCO1` 7.89

Please give the measured pKi for this compound: `CC(C)(C)c1cn(C[C@H]2CCCO2)/c(=N/C(=O)c2cc(C(F)(F)F)ccc2ON=C2CCCC2)s1` 8.92

###

SYSTEM TESTED: UniProtKB P34972
Sequence (P34972 whole entry): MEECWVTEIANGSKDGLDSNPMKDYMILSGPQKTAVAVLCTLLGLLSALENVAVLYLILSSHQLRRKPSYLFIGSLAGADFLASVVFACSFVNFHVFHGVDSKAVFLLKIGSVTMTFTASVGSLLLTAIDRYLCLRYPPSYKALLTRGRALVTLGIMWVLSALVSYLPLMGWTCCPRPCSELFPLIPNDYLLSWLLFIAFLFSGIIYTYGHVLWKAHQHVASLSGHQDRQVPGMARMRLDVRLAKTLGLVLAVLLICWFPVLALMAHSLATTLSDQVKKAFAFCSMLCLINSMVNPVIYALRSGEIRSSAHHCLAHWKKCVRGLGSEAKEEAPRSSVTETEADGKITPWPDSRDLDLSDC
METHOD: human CB2 radioligand binding assay ([3H]CP 55,940 competition)
EXPERIMENTAL SETUP: HEK293 membranes, 0.5 nM [3H]CP 55,940; read-out: human CB2 (Ki)
pKi: −log10 of the molar value.
Label 0.0 if pKi falls below 8; label 1.0 in every other case.

COMPOUND	GROUP
C[C@@H](O)COc1ccc(C(F)(F)F)cc1C(=O)/N=c1\sc(C(C)(C)C)cn1C[C@H]1CCCO1	1.0

Is pKi at least 8? Consider `CC(C)(C)c1cn(C[C@H]2CCCO2)/c(=N/C(=O)c2cc(C(F)(F)F)ccc2OCc2cnccn2)s1` 1.0

Determine whether this compound has pKi no lower than 8: `CC(C)(C)c1cn(C[C@H]2CCCO2)/c(=N/C(=O)c2cc(C(F)(F)F)ccc2OC[C@@H]2CCCO2)s1` 1.0

Decide: is the reported value of pKi for CC(C)(C)c1cn(C[C@H]2CCCO2)/c(=N/C(=O)c2cc(C(F)(F)F)ccc2OC[C@H]2CCC[N+]2(C)[O-])s1 (stereo partly shown) equal to or greater than 8? 0.0

###

System: rat CB2 receptors (Rattus norvegicus (Rat), UniProt Q9QZN9) | Read-out: Ki
Unit nM implied. Number only.

Using the record for `CC(C)N1CCC[C@H]1COc1ccc(C(F)(F)F)cc1C(=O)/N=c1\sc(C(C)(C)C)cn1C[C@H]1CCCO1` , report its Ki. 21

Returns the measured Ki for the input compound. Input: `CC(C)(C)c1cn(C[C@H]2CCCO2)/c(=N/C(=O)c2cc(C(F)(F)F)ccc2OCc2ccn[nH]2)s1` 5.1

###

SYSTEM TESTED: rat CB1 receptors (HEK cells) (Rattus norvegicus (Rat), UniProt P20272)
Sequence (P20272 whole entry): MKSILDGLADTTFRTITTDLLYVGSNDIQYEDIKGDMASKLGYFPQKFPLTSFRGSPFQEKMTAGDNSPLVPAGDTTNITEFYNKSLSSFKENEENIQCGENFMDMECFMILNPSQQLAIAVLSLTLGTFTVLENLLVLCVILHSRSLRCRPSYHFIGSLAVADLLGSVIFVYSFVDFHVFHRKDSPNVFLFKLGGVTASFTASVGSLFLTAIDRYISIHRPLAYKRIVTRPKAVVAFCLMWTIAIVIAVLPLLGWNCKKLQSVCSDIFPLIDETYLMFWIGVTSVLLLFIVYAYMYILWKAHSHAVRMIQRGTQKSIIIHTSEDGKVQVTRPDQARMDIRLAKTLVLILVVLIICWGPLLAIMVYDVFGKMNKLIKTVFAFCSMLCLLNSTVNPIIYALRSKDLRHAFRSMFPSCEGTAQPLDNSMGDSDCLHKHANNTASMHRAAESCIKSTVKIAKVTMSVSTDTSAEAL
METHOD: rat CB1 cyclase functional assay (HitHunter cAMP)
Type: cell-based
METRIC NAME: EC50 (µM)
Field format: number, assumed µM, no unit text.

Completed entries (count: 10):
CN1CCC[C@@H]1COc1ccc(C(F)(F)F)cc1C(=O)/N=c1\sc(C(C)(C)C)cn1C[C@H]1CCCO1 11.2
CN1C[C@@H](F)C[C@H]1COc1ccc(C(F)(F)F)cc1C(=O)/N=c1\sc(C(C)(C)C)cn1C[C@H]1CCCO1 1.13
CC(C)(C)c1cn(C[C@H]2CCCO2)/c(=N/C(=O)c2cc(C(F)(F)F)ccc2OCc2cccnc2)s1 6.22
CN1CC[C@@H](COc2ccc(C(F)(F)F)cc2C(=O)/N=c2\sc(C(C)(C)C)cn2C[C@H]2CCCO2)C1 12.1
CN1CCC[C@H]1COc1ccc(C#N)cc1C(=O)/N=c1\sc(C(C)(C)C)cn1C[C@H]1CCCO1 2.27
CC(C)N1CCC[C@H]1COc1ccc(C(F)(F)F)cc1C(=O)/N=c1\sc(C(C)(C)C)cn1C[C@H]1CCCO1 5.42
CC(C)(C)c1cn(C[C@H]2CCCO2)/c(=N/C(=O)c2cc(C(F)(F)F)ccc2OC[C@@H]2CCCO2)s1 0.941
CN1CCC[C@H]1COc1ccc(C(F)(F)F)cc1C(=S)/N=c1\sc(C(C)(C)C)cn1C[C@H]1CCCO1 1.32
CN(CCOc1ccc(C(F)(F)F)cc1C(=O)/N=c1\sc(C(C)(C)C)cn1C[C@H]1CCCO1)c1ccccc1 9.49
CC(C)(C)c1cn(C[C@H]2CCCO2)/c(=N/C(=O)c2cc(C(F)(F)F)ccc2OCc2cccc[n+]2[O-])s1 7.98

Query the reported EC50 for rat CB1 receptors (HEK cells) (Rattus norvegicus (Rat), UniProt P20272); item: `CCN1CCC[C@H]1COc1ccc(C(F)(F)F)cc1C(=O)/N=c1\sc(C(C)(C)C)cn1C[C@H]1CCCO1` 5.01

Given the entry `CN1C[C@H](F)C[C@H]1COc1ccc(C(F)(F)F)cc1C(=O)/N=c1\sc(C(C)(C)C)cn1C[C@H]1CCCO1` , what EC50 was observed with rat CB1 receptors (HEK cells) (Rattus norvegicus (Rat), UniProt P20272)? 0.362
